Origin of values: the supplement of paper PMC3545927

# target system: furin, P09958;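 further: purified furin at 1:10 enzyme:substrate in 50 mM HEPES pH 7.5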
# Sequence (P09958 whole entry): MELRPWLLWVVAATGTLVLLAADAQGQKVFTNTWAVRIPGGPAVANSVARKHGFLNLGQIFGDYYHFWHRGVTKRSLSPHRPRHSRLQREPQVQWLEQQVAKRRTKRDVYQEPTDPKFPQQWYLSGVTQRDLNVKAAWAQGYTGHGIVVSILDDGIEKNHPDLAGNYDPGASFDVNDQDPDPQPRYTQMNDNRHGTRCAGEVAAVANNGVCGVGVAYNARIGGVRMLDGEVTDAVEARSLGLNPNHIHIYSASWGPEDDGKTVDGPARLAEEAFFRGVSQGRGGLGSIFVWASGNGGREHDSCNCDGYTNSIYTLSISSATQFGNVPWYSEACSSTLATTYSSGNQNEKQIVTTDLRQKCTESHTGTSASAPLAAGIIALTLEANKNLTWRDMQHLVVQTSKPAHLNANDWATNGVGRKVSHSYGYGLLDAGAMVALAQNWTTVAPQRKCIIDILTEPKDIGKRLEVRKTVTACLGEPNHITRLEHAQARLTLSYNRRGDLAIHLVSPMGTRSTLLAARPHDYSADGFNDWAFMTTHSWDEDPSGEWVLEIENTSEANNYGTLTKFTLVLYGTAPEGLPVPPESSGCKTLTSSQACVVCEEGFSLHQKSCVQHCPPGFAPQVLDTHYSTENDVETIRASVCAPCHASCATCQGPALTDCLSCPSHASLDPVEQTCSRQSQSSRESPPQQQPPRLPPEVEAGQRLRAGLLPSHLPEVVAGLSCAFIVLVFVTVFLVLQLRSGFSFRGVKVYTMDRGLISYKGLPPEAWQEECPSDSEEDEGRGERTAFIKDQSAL
# assay remarks: furin cleavage Z-score vs untreated control; higher = more cleavage, active = 3.5 or more, inactive = 1 or less, 8 variable residues between constant flanks
# setup conditions: 7.5 min
This is one part of the list. The true hit rate is not given.
Parameter call: string, one of label 1 (active), label 0 (inactive)

Past entries and their recorded results:
CAEVPCHRISAGNASASA [HC2384] | label 0
CATSTWVLVGAGNASASA [HC989] | label 0
CARPRREAPFAGNASASA [FS-2742] | label 1
CAMEECSQHDAGNASASA [HC1771] | label 0
CAPQGDAAQKAGNASASA [NG3] | label 0

Ask | Called result for CAMEEPSQHLAGNASASA [HC20]
Reply | label 0

Ask | Called result for CAGKKRTVEMAGNASASA [FS-2861]
Reply | label 0
